- Assay Details: absolute recovery over mixed-bed multilayer solid-phase extraction; higher = better recovery
- Run Conditions: nanopure water; enrichment method: SPE
Experimental Endpoint: absolute recovery (%)

-- ask Recorded absolute recovery of Cc1cc(C)cc(OCC2CNC(=O)O2)c1 (stereo unspecified) , please.
-- reply 104

-- ask Same again, this time with Nc1nc(N)[nH+]c(NC2CC2)n1
-- reply 83.7

-- ask Same again, this time with CCC1OC(=O)C(C)C(OC2CC(C)(OC)C(O)C(C)O2)C(C)C(OC2OC(C)CC([NH+](C)C)C2O)C(C)(O)CC(C)C(=NOCOCCOC)C(C)C(O)C1(C)O (stereo unspecified)
-- reply 80.1

-- ask Same again, this time with COC(=O)c1cc(C(=O)OC)cc(S(=O)(=O)[O-])c1 [Dimethyl-5-Sulfoisophthalate]
-- reply 96

-- ask Same again, this time with COCCOCCOCCOCCOC
-- reply 80.5

-- ask Same again, this time with COc1ccc(CN(CC[NH+](C)C)c2ccccn2)cc1
-- reply 83.7

* * *

- Assay Details: absolute recovery over vacuum-assisted evaporative concentration; higher = better recovery
- Run Conditions: wastewater influent; enrichment method: VEC
Experimental Endpoint: absolute recovery (%)

-- ask Recorded absolute recovery of CC(C)c1ccc(N)cc1 [4-Isopropylanilin] , please.
-- reply 96.6

-- ask Same again, this time with COC(=O)c1cc(C(=O)OC)cc(S(=O)(=O)[O-])c1 [Dimethyl-5-Sulfoisophthalate]
-- reply 90.7

-- ask Same again, this time with COc1c(Cl)ccc(Cl)c1C(=O)[O-] [Dicamba]
-- reply 106

-- ask Same again, this time with CC(C)(C)C(O)(CCc1ccc(Cl)cc1)Cn1cncn1 (stereo not drawn) [Tebuconazol]
-- reply 99.8

-- ask Same again, this time with CC(C)N(C(=O)COc1nnc(C(F)(F)F)s1)c1ccc(F)cc1 [Flufenacet]
-- reply 95.3

-- ask Same again, this time with Cn1nnc2ccccc21 [1-Methyl-Benzotriazol]
-- reply 82.1

-- ask Same again, this time with Cc1cccc(C)c1N(Cn1cccn1)C(=O)CS(=O)(=O)[O-] [Metazachlor-ESA]
-- reply 104

-- ask Same again, this time with CCOC(=O)OC1=C(c2cc(C)ccc2C)C(=O)NC12CCC(OC)CC2 (stereo not drawn) [Spirotetramat]
-- reply 54.9

-- ask Same again, this time with Cc1cn(C2CC(N=[N+]=[N-])C(CO)O2)c(=O)[nH]c1=O (stereo not drawn) [Zidovudine]
-- reply 104

-- ask Same again, this time with N#CC1CCCN1C(=O)C[NH2+]C12CC3CC(CC(O)(C3)C1)C2 (stereo not drawn) [Vildagliptin]
-- reply 102

-- ask Same again, this time with OC(Cc1ccccc1Cl)(Cn1[nH]cnc1=S)C1(Cl)CC1 (stereo not drawn) [Prothioconazole]
-- reply 39.8

-- ask Same again, this time with CCC(C)(C)C(=O)OC1=C(c2ccc(Cl)cc2Cl)C(=O)OC12CCCCC2 [Spirodiclofen]
-- reply 44.4

-- ask Same again, this time with NC(=O)N1c2ccccc2C(O)C(O)c2ccccc21 (stereo not drawn) [Carbamazepin-10-11-dihydro-10-11-dihydroxy]
-- reply 93.4

-- ask Same again, this time with CC=CC(=O)N(CC)C(CC)C(=O)N(C)C (stereo not drawn) [Crotethamide]
-- reply 94.6

-- ask Same again, this time with CCNc1nc(O)nc(NC(C)C)n1 [Atrazin-2-Hydroxy]
-- reply 102

-- ask Same again, this time with O=C([O-])c1ccc(-c2ccccc2-c2nn[nH]n2)cc1 [Valsartan-acid]
-- reply 104

-- ask Same again, this time with C[NH2+]C(CC(C)C)C(=O)NC1C(=O)NC(CC(N)=O)C(=O)NC2C(=O)NC3C(=O)NC(C(=O)NC(C(=O)[O-])c4cc(O)cc(O)c4-c4cc3ccc4O)C(O)c3ccc(c(Cl)c3)Oc3cc2cc(c3OC2OC(CO)C(O)C(O)C2OC2CC(C)([NH3+])C(O)C(C)O2)Oc2ccc(cc2Cl)C1O (stereo not drawn) [Vancomycin]
-- reply 109

-- ask Same again, this time with CC(C)(C)c1n[nH]c(=O)n(N)c1=O [Metribuzin-Diketo (=DK)]
-- reply 96.4
